TGT: CDK2 (Homo sapiens)
Construct: endogenous in cells; host or cells: MKN1 cells
MEASUREMENT PROTOCOL: CDK2 degradation in MKN1 cells (AlphaLISA)
Format: cell-based
STATED CONDITIONS: 14 h incubation, read-out: CDK2 degradation 14 h: Mean external-Abs DC50
METRIC NAME: DC50

Example entries and their recorded answers appear below.
Cc1cc(S(=O)(=O)C2CC3(CCN(CC4CCN(c5cccc6c5n(C)c(=O)n6C5CCC(=O)NC5=O)CC4)CC3)C2)ccc1Nc1ncc2cc(C(F)F)c(=O)n(C3CCCC3)c2n1 (stereo not drawn) [I-86]; < 100 nM
Cc1cc(S(=O)(=O)CCCO[C@H]2CC[C@H](CN3CCC(c4ccc5c(c4)n(C)c(=O)n5C4CCC(=O)NC4=O)CC3)CC2)ccc1Nc1ncc2cc(Cl)c(=O)n(C3CCCC3)c2n1 (stereo partly drawn) [I-3]; < 100 nM
Cc1cc(S(=O)(=O)NC2(C)CCC(CN3CCN(c4ccc(C5CCC(=O)NC5=O)cc4F)CC3)CC2)ccc1Nc1ncc(C(F)(F)F)c(N2CCC[C@](C)(O)C2)n1 (stereo partly drawn) [I-803]; < 100 nM
Cc1cc(S(=O)(=O)NC(C)COC2CCC(CN3CCN(c4ccc5c(c4F)n(C)c(=O)n5C4CCC(=O)NC4=O)CC3)CC2)ccc1Nc1ncc(C(F)(F)F)c(C2CCC(C)(O)CC2)n1 (stereo not drawn) [I-845]; 100 to 500 nM
Cc1cc(S(=O)(=O)NCCC2CCN(c3ccc(N4CCC(=O)NC4=O)cc3)CC2)ccc1Nc1ncc2cc(Cl)c(=O)n(C3CCCC3)c2n1 [I-413]; > 1000 nM

Below are 5 compounds. Give each one its DC50.
1. Cc1cc(S(=O)(=O)C2CC3(CCN(CC4CCN(c5cccc6c5n(C)c(=O)n6C5CCC(=O)NC5=O)CC4)CC3)C2)ccc1Nc1ncc(C(F)(F)F)c(N2CCC(C(C)(C)O)C2)n1 (stereo not drawn) [I-842]
2. Cc1cc(S(=O)(=O)C2CC3(CCN(CC4CCN(c5ccc6c(c5F)n(C)c(=O)n6C5CCC(=O)NC5=O)CC4)CC3)C2)ccc1Nc1ncc(C(F)(F)F)c(N2CCCC(O)(C(F)F)C2)n1 (stereo not drawn) [I-507]
3. Cc1cc(S(=O)(=O)NCCO[C@H]2CC[C@H](CN3CCN(c4ccc5c(c4)n(C)c(=O)n5C4CCC(=O)NC4=O)CC3)CC2)ccc1Nc1ncc2cc(Cl)c(=O)n(C3CCCC3)c2n1 (stereo partly drawn) [I-432]
4. Cc1cc(S(=O)(=O)C2CC3(CCN(CC4CCN(c5cccc6c5n(C)c(=O)n6C5CCC(=O)NC5=O)CC4)CC3)C2)ccc1Nc1ncc2c(n1)N(C1CCCC1)C(=O)C21CC1 (stereo not drawn) [I-42]
5. Cc1cc(S(=O)(=O)NC2CC(N3CCC(F)(CN4CCC(c5cccc6c5n(C)c(=O)n6C5CCC(=O)NC5=O)CC4)CC3)C2)ccc1Nc1ncc(C(F)(F)F)c(N2CCCC(C)(O)C2)n1 (stereo not drawn) [I-699]

RESULT:
< 100 nM
< 100 nM
< 100 nM
< 100 nM
< 100 nM

Below are 4 compounds. Give each one its DC50.
1. Cc1cc(S(=O)(=O)N2CCC(F)(CN(C)C3CCN(c4cccc5c4n(C)c(=O)n5C4CCC(=O)NC4=O)CC3)CC2)ccc1Nc1ncc2cc(Cl)c(=O)n(C3CCCC34CC4)c2n1 (stereo not drawn) [I-358]
2. CC1CC(NS(=O)(=O)c2ccc(Nc3ncc(C(F)(F)F)c(N4CCCC(C)(O)C4)n3)c(F)c2)CCN1CC1CCN(c2ccc(C3CCC(=O)NC3=O)c(F)c2)CC1 (stereo not drawn) [I-1059]
3. Cc1cc(S(=O)(=O)NCCOCCOCCOCCOCCCc2ccc3c(c2)n(C)c(=O)n3C2CCC(=O)NC2=O)ccc1Nc1ncc2ccc(=O)n(C3CCCC3)c2n1 (stereo not drawn) [I-973]
4. COc1cc(NC2CCC(=O)NC2=O)ccc1N1CCC(CN2CCC3(CC2)CC(S(=O)(=O)c2ccc(Nc4ncc5cc(Cl)c(=O)n(C6CCCC6)c5n4)c(C)c2)C3)CC1 (stereo not drawn) [I-77]

RESULT:
500 to 1000 nM
< 100 nM
< 100 nM
< 100 nM

Below are 2 compounds. Give each one its DC50.
1. Cc1cc(S(=O)(=O)NC(C)COC2CCC(CN3CCN(c4ccc5c(c4F)n(C)c(=O)n5C4CCC(=O)NC4=O)CC3)CC2)ccc1Nc1ncc2cc(Cl)c(=O)n(C(C)C(C)(C)O)c2n1 (stereo not drawn) [I-843]
2. CC1(O)CCCN(c2nc(Nc3ccc(S(=O)(=O)NC4CCC(CN5CCN(c6ccc(C7CCC(=O)NC7=O)cc6)CC5)CC4)cc3C(F)(F)F)ncc2C(F)(F)F)C1 (stereo not drawn) [I-1101]

RESULT:
> 1000 nM
100 to 500 nM
